Data origin: patent US20120270844A1

List of IC50 values.
# EXPERIMENTAL_TARGET: PAK1 (Homo sapiens, UniProt Q13153)
# Sequence (Q13153 whole entry): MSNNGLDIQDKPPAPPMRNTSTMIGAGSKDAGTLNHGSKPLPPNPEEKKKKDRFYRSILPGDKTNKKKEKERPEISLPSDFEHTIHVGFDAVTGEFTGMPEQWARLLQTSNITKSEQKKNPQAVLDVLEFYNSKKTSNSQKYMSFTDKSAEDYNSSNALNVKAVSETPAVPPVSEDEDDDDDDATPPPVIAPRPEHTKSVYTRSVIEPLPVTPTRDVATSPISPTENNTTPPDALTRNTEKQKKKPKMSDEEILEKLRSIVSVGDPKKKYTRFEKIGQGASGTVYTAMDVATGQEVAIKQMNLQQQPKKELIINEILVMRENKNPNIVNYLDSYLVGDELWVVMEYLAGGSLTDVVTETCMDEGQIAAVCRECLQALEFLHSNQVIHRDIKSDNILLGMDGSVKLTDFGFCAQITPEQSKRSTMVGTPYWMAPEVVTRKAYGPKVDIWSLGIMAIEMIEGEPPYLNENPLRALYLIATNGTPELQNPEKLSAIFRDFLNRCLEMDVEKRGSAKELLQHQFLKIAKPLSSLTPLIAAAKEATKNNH
# RUN_DESCRIPTION: Z'Lyte fluorescence-based (FRET) PAK kinase assay, PAK1
# Format: biochemical
# TEST_PARAMETERS: Table 1 of Example 29 (own compound numbering); 50 μM ATP

{"columns": ["COMPOUND", "IC50"],
 "data": [
  ["Cc1cccnc1Cn1c(=O)ccc2cnc(Nc3ccc(N4CCN(C)CC4)cc3)nc21 [Compound 106]", "1 to 10 µM"],
  ["CC(c1ccccc1)n1c(=O)ccc2cnc(Nc3ccc(N4CCN(C)CC4)cc3)nc21 (centres unmarked) [Compound 102]", "1 to 10 µM"],
  ["CN1CCN(c2ccc(Nc3ncc4ccc(=O)n(Cc5ccccc5OC(F)F)c4n3)cc2)CC1 [compound 98]", "< 1 µM"],
  ["CN1CCN(c2ccc(Nc3ncc4ccc(=O)n(C5CCOc6ccccc65)c4n3)cc2)CC1 (centres unmarked) [compound 71]", "1 to 10 µM"],
  ["CN1CCN(c2ccc(Nc3ncc4ccc(=O)n(Cc5ccncc5)c4n3)cc2)CC1 [compound 91]", "1 to 10 µM"],
  ["CN1CCN(c2ccc(Nc3ncc4ccc(=O)n(CC(=O)c5ccccc5)c4n3)cc2)CC1 [Compound 104]", "1 to 10 µM"],
  ["O=c1ccc2cnc(Nc3ccc(N4CCNCC4)cc3)nc2n1C1CCCc2ccccc21 (centres unmarked) [compound 61]", "1 to 10 µM"],
  ["CN1CCN(c2ccc(Nc3ncc4ccc(=O)n(C5Cc6ccccc6C5)c4n3)cc2)CC1 [compound 73]", "< 1 µM"],
  ["O=c1ccc2cnc(Nc3ccc(OC4CCNCC4)cc3)nc2n1Cc1ccccc1C(F)(F)F [compound 68]", "< 1 µM"],
  ["Cc1cccc(O)c1Cn1c(=O)ccc2cnc(Nc3ccc(N4CCN(C)CC4)cc3)nc21 [Compound 119]", "< 1 µM"],
  ["CN1CCN(c2ccc(Nc3ncc4ccc(=O)n(C5CCc6ccccc65)c4n3)cc2)CC1 (centres unmarked) [compound 62]", "< 1 µM"],
  ["CN1CCN(c2ccc(Nc3ncc4ccc(=O)n(Cc5ccccc5F)c4n3)cc2)CC1 [compound 89]", "1 to 10 µM"],
  ["O=c1c(-c2ccccc2)cc2cnc(Nc3ccc(N4CCNCC4)cc3)nc2n1Cc1ccccc1C(F)(F)F [Compound 163]", "< 1 µM"],
  ["O=c1ccc2cnc(Nc3ccc(N4CCOCC4)cc3)nc2n1C1CCCC1 [compound 58]", "> 10 µM"]
]}
